Where do the numbers come from? From the kinase profiling compilation of Christmann-Franck et al. (2016).

System: ROCK2 (rat)
Assay: radiometric filter-binding kinase assay
Details: compound 1.0 µM; accession and sequence are those of the human protein
readout-kind: residual activity (%)

These recorded examples may help you get a feel for the data.
>>> observed("CCc1cncnc1N1CCN(Cc2nc3cc(C(F)(F)F)ccc3[nH]2)CC1")
91
>>> observed("Cn1c(=O)c2c(ncn2C)n(C)c1=O")
93
>>> observed("COc1cc(O)c2c(c1)[C@H]1OC1C[C@H](O)[C@H](O)C(=O)/C=C\\C[C@H](C)OC2=O (stereo not given in full)")
99
>>> observed("CCCC(CCC)C(=O)O")
84
>>> observed("O=C(N[C@@H](COc1ccc2[nH]c(=O)[nH]c2c1)c1ccccc1)c1cccn(Cc2ccc(F)c(F)c2)c1=O")
112

P. O=C(NOCC(O)CO)c1ccc(F)c(F)c1Nc1ccc(I)cc1Cl (stereo not given)
Q. CN(C)C/C=C/C(=O)Nc1cccc(C(=O)Nc2ccc(Nc3nccc(-c4cccnc4)n3)cc2)c1
R. COc1ccc(-n2ncc3cnc(Nc4cc(OC)c(OC)c(OCCCN5CCN(C)CC5)c4)nc32)cc1
Input line: List from greatest to least residual activity. Returns: the labels arranged in the requested order.
Output line: P, Q, R
(P: 102%, Q: 71%, R: 25%)

P. CC(C)(C#N)c1ccc(N2C(=O)OCc3cnc4ccc(-c5cnc6ccccc6c5)cc4c32)cc1
Q. O=C1NC(=S)N[C@@H]1Cc1c[nH]c2ccccc12
Input line: For this pair, P and Q , which shows a numerically higher residual activity? Kindly state the label of the option you pick.
Output line: P
(P: 120%, Q: 83%)
